# test_target: human OT7T175 (metastin receptor) (human, UniProt Q969F8 1-398)
# Sequence (Q969F8 whole entry L364H): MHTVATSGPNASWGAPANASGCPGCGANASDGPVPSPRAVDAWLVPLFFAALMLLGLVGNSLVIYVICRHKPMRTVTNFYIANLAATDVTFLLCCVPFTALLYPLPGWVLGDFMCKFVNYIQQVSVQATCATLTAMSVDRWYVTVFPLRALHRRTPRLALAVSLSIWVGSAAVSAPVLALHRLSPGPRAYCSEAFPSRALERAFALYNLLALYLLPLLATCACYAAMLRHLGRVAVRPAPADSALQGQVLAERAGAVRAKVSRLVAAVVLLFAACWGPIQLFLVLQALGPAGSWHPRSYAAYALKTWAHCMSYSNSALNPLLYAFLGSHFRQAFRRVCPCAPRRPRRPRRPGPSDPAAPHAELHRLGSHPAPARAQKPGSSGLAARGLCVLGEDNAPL
# assay_comment: cell-based or functional assay
Non-standard residues stand in square brackets, D forms with d. No end group written: not given here. Arg(Me) = CNC(=N)NCCC[C@H](N)C(=O)O; azaGly = NNC(=O)O
test_readout: Ca ion level-increasing activity (FLIPR)

[dY]NVNSF[azaGly]L[Arg(Me)]F-NH2 (N-terminus assumed; SMILES CNC(=N)NCCC[C@H](NC(=O)[C@H](CC(C)C)NC(=O)NNC(=O)[C@H](Cc1ccccc1)NC(=O)[C@H](CO)NC(=O)[C@H](CC(N)=O)NC(=O)[C@@H](NC(=O)[C@H](CC(N)=O)NC(=O)[C@H](N)Cc1ccc(O)cc1)C(C)C)C(=O)N[C@@H](Cc1ccccc1)C(N)=O, also called Compound No. 234) [[D-Tyr1,Val3,AzaGly7,Arg(Me)9]MS10]; 1 x Metastin (1-54)

Now take the following binder into account.
Complete the entry with Ca ion level-increasing activity (FLIPR) for [dY]TWNSFGL[Arg(Me)]F-NH2 (N-terminus assumed; SMILES CNC(=N)NCCC[C@H](NC(=O)[C@H](CC(C)C)NC(=O)CNC(=O)[C@H](Cc1ccccc1)NC(=O)[C@H](CO)NC(=O)[C@H](CC(N)=O)NC(=O)[C@H](Cc1c[nH]c2ccccc12)NC(=O)[C@@H](NC(=O)[C@H](N)Cc1ccc(O)cc1)[C@@H](C)O)C(=O)N[C@@H](Cc1ccccc1)C(N)=O, also called Compound No. 215) [[D-Tyr1,Thr2,Arg(Me)9]MS10] 10 x Metastin (1-54)

Data provenance: patent US20090298765A1
